target: purified lapine LBP (Oryctolagus cuniculus, UniProt P17454); construct: the mature secreted protein present in impure form in acute phase sera; from tissue; host or cells: acute phase rabbit serum (silver nitrate induced), Bio-Rex 70 and Mono-Q columns; assay: Microtiter binding assay: inhibition of LBP binding to Re595 LPS-coated plates; parameters: species or system rabbit; conditions: concentration necessary to reduce the binding of 1 ug/ml LBP to the Re595 LPS-coated plate by 50 percent; read-out: ED50 (the source's name) (converted)
Sequence (P17454 27-482): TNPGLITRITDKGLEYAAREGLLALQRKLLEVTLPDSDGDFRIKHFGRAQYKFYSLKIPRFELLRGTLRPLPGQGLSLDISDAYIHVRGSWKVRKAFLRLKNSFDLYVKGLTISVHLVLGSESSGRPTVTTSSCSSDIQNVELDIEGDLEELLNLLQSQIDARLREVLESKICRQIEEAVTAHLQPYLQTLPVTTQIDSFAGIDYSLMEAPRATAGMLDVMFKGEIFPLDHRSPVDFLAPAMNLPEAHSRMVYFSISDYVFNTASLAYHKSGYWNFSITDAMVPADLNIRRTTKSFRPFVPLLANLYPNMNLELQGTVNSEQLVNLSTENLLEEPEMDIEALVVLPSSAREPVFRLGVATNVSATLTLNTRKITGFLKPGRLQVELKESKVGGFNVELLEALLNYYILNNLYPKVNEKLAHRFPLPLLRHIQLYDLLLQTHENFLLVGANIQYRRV
property: IC50 (µM)
A number alone suffices; assume µM.

Would you please look over these solved cases?
{"columns": ["compound", "IC50 / µM"],
 "data": [
  ["CCCCCCCCCCCCCC(=O)OCC(COP(=O)(O)O)OC(=O)CCCCCCCCCCCCC (stereo not shown)", 4.22],
  ["CCCCCCCCCCCCCC(=O)O[C@H](CCCCCCCCCCC)CC(=O)O[C@@H]1[C@@H](NC(=O)C[C@@H](CCCCCCCCCCC)OC(=O)CCCCCCCCCCC)[C@H](OC[C@H]2O[C@H](OP(=O)(O)O)[C@H](NC(=O)C[C@H](O)CCCCCCCCCCC)[C@@H](OC(=O)C[C@H](O)CCCCCCCCCCC)[C@@H]2O)O[C@H](CO)[C@H]1OP(=O)(O)O [J5 LA (synthetic)]", 0.0222]
]}

Continue with the next compound.
Input line: Consider the compound "CCCCCCCCCCC[C@@H](O)CC(=O)N[C@H]1[C@@H](OP(=O)(O)O)O[C@H](CO)[C@@H](O)[C@@H]1OC(=O)C[C@H](O)CCCCCCCCCCC" and give its measured IC50.
Output line: 3.93

====

Molecular target: purified lapine LBP (Oryctolagus cuniculus, UniProt P17454)
Construct: the mature secreted protein present in impure form in acute phase sera; from tissue; host or cells: acute phase rabbit serum (silver nitrate induced), Bio-Rex 70 and Mono-Q columns
Assay: Microtiter binding assay: inhibition of LBP binding to Re595 LPS-coated plates
Parameters: species or system rabbit
Settings: concentration necessary to reduce the binding of 1 ug/ml LBP to the plate by 50 percent; read-out: ED50 (the source's name) (converted)
Source text: The binding of purified lapine LBP to LPS immobilized on plastic microtiter plates has also been examined. The presence of LBP bound to LPS was detected with goat anti-rabbit LBP and peroxidase conjugated rabbit anti-goat IgG. The data from these studies are shown in Table IV, below, where the numerical results are the concentrations necessary to reduce the binding of 1 microgram (ug)/ml LBP to the plate by 50 percent; i.e., ED50. […]
IC50 listing for selected molecules.
A number alone suffices; assume µM.

Would you please look over these solved cases?
{"columns": ["molecule", "measurement.unit", "IC50"],
 "data": [
  ["CCCCCCCCCCCCCC(=O)O[C@H](CCCCCCCCCCC)CC(=O)O[C@@H]1[C@@H](NC(=O)C[C@@H](CCCCCCCCCCC)OC(=O)CCCCCCCCCCC)[C@H](OC[C@H]2O[C@H](OP(=O)(O)O)[C@H](NC(=O)C[C@H](O)CCCCCCCCCCC)[C@@H](OC(=O)C[C@H](O)CCCCCCCCCCC)[C@@H]2O)O[C@H](CO)[C@H]1OP(=O)(O)O [J5 LA (synthetic)]", "µM", 0.02],
  ["CCCCCCCCCCC[C@@H](O)CC(=O)N[C@H]1[C@@H](OP(=O)(O)O)O[C@H](CO)[C@@H](O)[C@@H]1OC(=O)C[C@H](O)CCCCCCCCCCC [Lipid x]", "µM", 3.9]
]}

Continue with the next molecule.
Input line: Consider the molecule CCCCCCCCCCCCCC(=O)OCC(COP(=O)(O)O)OC(=O)CCCCCCCCCCCCC (stereo not shown) [Dimyristoyl phosphatidic acid, dimyristoyl phosphatidic acid] and give its measured IC50.
Output line: 3.9
